Test system: Staphylococcus aureus
Method Notes: Antimicrobial activity against Staphylococcus aureus 8325 by serial dilution method
Assay type: functional
Give measured MIC for each item. Keep answers brief.
Write the value in µg/mL as a bare number.

Please indicate recorded MIC of CC[C@H]1OC(=O)[C@H](C)[C@@H](O[C@H]2C[C@@](C)(OC)[C@@H](OC=O)[C@H](C)O2)[C@H](C)[C@@H](O[C@@H]2O[C@H](C)C[C@H](N(C)C)[C@H]2OC(C)=O)[C@@]2(C)CC(C)=C(O2)[C@H](C)[C@@H](OC(=O)C(C)C)[C@]1(C)OC(=O)C(C)C measured with Staphylococcus aureus.
16

Please indicate recorded MIC of CC[C@H]1OC(=O)[C@H](C)[C@@H](OCc2cn(-c3cccc4ccccc34)nn2)[C@H](C)[C@@H](O[C@@H]2O[C@H](C)C[C@H](N(C)C)[C@H]2O)[C@@]2(C)CC(C)=C(O2)[C@H](C)[C@@H](OC(=O)C(C)C)[C@]1(C)OC(=O)C(C)C measured with Staphylococcus aureus.
16

Please indicate recorded MIC of CC[C@H]1OC(=O)[C@H](C)[C@@H](O[C@H]2C[C@@](C)(OC)[C@@H](O)[C@H](C)O2)[C@H](C)[C@@H](O[C@@H]2O[C@H](C)C[C@H](N(C)C)[C@H]2O)[C@@]2(C)CC(C)=C(O2)[C@H](C)[C@@H](OC(=O)C(C)C)[C@]1(C)OC(=O)C(C)C measured with Staphylococcus aureus.
16

Please indicate recorded MIC of CC[C@H]1OC(=O)[C@H](C)[C@@H](O)[C@H](C)[C@@H](O[C@@H]2O[C@H](C)C[C@H](N(C)C)[C@H]2OC(C)=O)[C@@]2(C)CC(C)=C(O2)[C@H](C)[C@@H](OC(=O)C(C)C)[C@]1(C)OC(=O)C(C)C measured with Staphylococcus aureus.
64

Please indicate recorded MIC of CC[C@H]1OC(=O)[C@H](C)[C@@H](OCc2cn(-c3cnc4ccccc4c3)nn2)[C@H](C)[C@@H](O[C@@H]2O[C@H](C)C[C@H](N(C)C)[C@H]2O)[C@@]2(C)CC(C)=C(O2)[C@H](C)[C@@H](OC(=O)C(C)C)[C@]1(C)OC(=O)C(C)C measured with Staphylococcus aureus.
8

Please indicate recorded MIC of CC[C@H]1OC(=O)[C@H](C)[C@@H](OCc2cn(CCO)nn2)[C@H](C)[C@@H](O[C@@H]2O[C@H](C)C[C@H](N(C)C)[C@H]2O)[C@@]2(C)CC(C)=C(O2)[C@H](C)[C@@H](OC(=O)C(C)C)[C@]1(C)OC(=O)C(C)C measured with Staphylococcus aureus.
64

Please indicate recorded MIC of CC[C@H]1OC(=O)[C@H](C)[C@@H](OCc2cn(CC(=O)Nc3ccccn3)nn2)[C@H](C)[C@@H](O[C@@H]2O[C@H](C)C[C@H](N(C)C)[C@H]2O)[C@@]2(C)CC(C)=C(O2)[C@H](C)[C@@H](OC(=O)C(C)C)[C@]1(C)OC(=O)C(C)C measured with Staphylococcus aureus.
16

Please indicate recorded MIC of CC[C@H]1OC(=O)[C@H](C)[C@@H](OCc2cn(CC(=O)OCc3ccccc3)nn2)[C@H](C)[C@@H](O[C@@H]2O[C@H](C)C[C@H](N(C)C)[C@H]2O)[C@@]2(C)CC(C)=C(O2)[C@H](C)[C@@H](OC(=O)C(C)C)[C@]1(C)OC(=O)C(C)C measured with Staphylococcus aureus.
16

Please indicate recorded MIC of CC[C@H]1OC(=O)[C@H](C)[C@@H](OCc2cn(C34CC5CC(CC(C5)C3)C4)nn2)[C@H](C)[C@@H](O[C@@H]2O[C@H](C)C[C@H](N(C)C)[C@H]2O)[C@@]2(C)CC(C)=C(O2)[C@H](C)[C@@H](OC(=O)C(C)C)[C@]1(C)OC(=O)C(C)C measured with Staphylococcus aureus.
8

Please indicate recorded MIC of CC[C@H]1OC(=O)[C@H](C)[C@@H](OCc2cn(CSc3ccccc3)nn2)[C@H](C)[C@@H](O[C@@H]2O[C@H](C)C[C@H](N(C)C)[C@H]2O)[C@@]2(C)CC(C)=C(O2)[C@H](C)[C@@H](OC(=O)C(C)C)[C@]1(C)OC(=O)C(C)C measured with Staphylococcus aureus.
16

Please indicate recorded MIC of CC[C@H]1OC(=O)[C@H](C)[C@@H](OCc2cn(Cc3ccccc3)nn2)[C@H](C)[C@@H](O[C@@H]2O[C@H](C)C[C@H](N(C)C)[C@H]2O)[C@@]2(C)CC(C)=C(O2)[C@H](C)[C@@H](OC(=O)C(C)C)[C@]1(C)OC(=O)C(C)C measured with Staphylococcus aureus.
8

Please indicate recorded MIC of C#CCO[C@H]1[C@H](C)[C@@H](O[C@@H]2O[C@H](C)C[C@H](N(C)C)[C@H]2O)[C@@]2(C)CC(C)=C(O2)[C@H](C)[C@@H](OC(=O)C(C)C)[C@](C)(OC(=O)C(C)C)[C@@H](CC)OC(=O)[C@@H]1C measured with Staphylococcus aureus.
16

Please indicate recorded MIC of CC[C@H]1OC(=O)[C@H](C)[C@@H](OCc2cn(-c3cccnc3)nn2)[C@H](C)[C@@H](O[C@@H]2O[C@H](C)C[C@H](N(C)C)[C@H]2O)[C@@]2(C)CC(C)=C(O2)[C@H](C)[C@@H](OC(=O)C(C)C)[C@]1(C)OC(=O)C(C)C measured with Staphylococcus aureus.
16
